In this section, each of the compounds is paired with its reported TGI.
System: SK-MEL-2 melanoma
Assay: NCI tumour cell line growth inhibition, 48 h
ASSAY ENDPOINT: TGI

>  <COMPOUND>
CN1CCN(Cc2ccc(NC(=O)c3cncc(C#Cc4cnc(N)cc4C#N)c3)cc2C(F)(F)F)CC1

>  <ASSAY RESULT>
3.44 µM

$$$$
>  <COMPOUND>
CCOC(=O)CCC1(C(=O)OCC)CCCC1=O (configuration not stated)

>  <ASSAY RESULT>
> 100 µM

$$$$
>  <COMPOUND>
COC(=O)CCC12CCC(=O)C1[C@@H](C(=O)OC)C[C@H]2C(=O)OC (some centres not stated)

>  <ASSAY RESULT>
> 100 µM

$$$$
>  <COMPOUND>
[O-]c1ccccc1C=Nc1ccc2c(c1)CCC2.[O-]c1ccccc1C=Nc1ccc2c(c1)CCC2.[O]=[U+2]=[O]

>  <ASSAY RESULT>
> 100 µM

$$$$
>  <COMPOUND>
Cc1ccc(Sc2ccccc2[N+](=O)[O-])cc1

>  <ASSAY RESULT>
> 100 µM

$$$$
>  <COMPOUND>
COc1ccc(Nc2nc3ccccc3c3occc23)cc1

>  <ASSAY RESULT>
22.5 µM

$$$$
>  <COMPOUND>
O=NN(CCF)C(=O)NC1CC2CCC1C2 (configuration not stated)

>  <ASSAY RESULT>
> 100 µM

$$$$

* * *

Test system: MDA-MB-435
Assay: NCI tumour cell line growth inhibition, 48 h
Where a SMILES comes first, the peptide text is derived from it. The star is where a group is joined. Boc = CC(C)(C)OC(=O)*; OBn = c1ccc(CO*)cc1
ASSAY ENDPOINT: TGI (µM)

>  <COMPOUND>
C1=C/COCc2cc(ccc2OCCN2CCCC2)Nc2nccc(n2)-c2ccc(o2)COC/1

>  <ASSAY ENDPOINT>
TGI

>  <MODIFIER SIGN>
=

>  <ASSAY RESULT>
3.73

$$$$
>  <COMPOUND>
CC(C)CC(NC(=O)OC(C)(C)C)C(=O)NC(CC(=O)OCc1ccccc1)C(=O)OCc1ccccc1 (stereo not drawn) (Boc-Leu-Asp(OBn)-OBn; configuration not given here)

>  <ASSAY ENDPOINT>
TGI

>  <MODIFIER SIGN>
>

>  <ASSAY RESULT>
100

$$$$
>  <COMPOUND>
Oc1c(Cl)cc(Cl)c2ccc(Cn3cc(-c4cc(C(F)(F)F)cc(C(F)(F)F)c4)nn3)nc12

>  <ASSAY ENDPOINT>
TGI

>  <MODIFIER SIGN>
=

>  <ASSAY RESULT>
4.18

$$$$
>  <COMPOUND>
NC(Cc1c[nH]c2cc([N+](=O)[O-])ccc12)C(=O)O (centres undefined)

>  <ASSAY ENDPOINT>
TGI

>  <MODIFIER SIGN>
>

>  <ASSAY RESULT>
100

$$$$
>  <COMPOUND>
Oc1ccccc1C1C=C(c2ccccc2)NC(N2CCCCC2)=C1c1nc2ccccc2[nH]1 (centres undefined)

>  <ASSAY ENDPOINT>
TGI

>  <MODIFIER SIGN>
=

>  <ASSAY RESULT>
29.6

$$$$
>  <COMPOUND>
O=C(Nc1ccc(-n2ccc3c(NC(=O)c4ccccc4)ncnc32)cc1)c1cccc(C(F)(F)F)c1

>  <ASSAY ENDPOINT>
TGI

>  <MODIFIER SIGN>
=

>  <ASSAY RESULT>
16.3

$$$$
>  <COMPOUND>
NS(=O)(=O)c1ccc(N=Nc2c(O)[nH]c3ccc(C(=O)NCc4ccncc4)cc23)cc1

>  <ASSAY ENDPOINT>
TGI

>  <MODIFIER SIGN>
>

>  <ASSAY RESULT>
25

$$$$
>  <COMPOUND>
C[Si](C)(c1ccc(C(=O)O)cc1)c1ccc(C(=O)O)cc1

>  <ASSAY ENDPOINT>
TGI

>  <MODIFIER SIGN>
>

>  <ASSAY RESULT>
100

$$$$
>  <COMPOUND>
COc1ccc(/C=C/C(=O)c2ccc(-n3cc(CN4CCN(c5cc6c(cc5F)c(=O)c(C(=O)O)cn6C5CC5)CC4)nn3)cc2)cc1OC

>  <ASSAY ENDPOINT>
TGI

>  <MODIFIER SIGN>
=

>  <ASSAY RESULT>
4.67

$$$$
>  <COMPOUND>
NS(=O)(=O)c1ccc(N2N=C3c4ccccc4CC3C2c2cccs2)cc1 (centres undefined)

>  <ASSAY ENDPOINT>
TGI

>  <MODIFIER SIGN>
=

>  <ASSAY RESULT>
48.1

$$$$
>  <COMPOUND>
CCOc1ccc(/C(C=O)=C(\Cl)c2ccc(OC)cc2)cc1

>  <ASSAY ENDPOINT>
TGI

>  <MODIFIER SIGN>
>

>  <ASSAY RESULT>
100

$$$$
>  <COMPOUND>
C=C(C)C1CC/C(C)=C/CC[C@]2(C)O[C@@H]2CCC2=CC1OC2=O (some centres undefined)

>  <ASSAY ENDPOINT>
TGI

>  <MODIFIER SIGN>
>

>  <ASSAY RESULT>
100

$$$$
>  <COMPOUND>
CO[C@H]1O[C@@H]2CO[C@@H](c3ccccc3)O[C@H]2[C@@H]2C/C=C\CCC[C@@]12O

>  <ASSAY ENDPOINT>
TGI

>  <MODIFIER SIGN>
=

>  <ASSAY RESULT>
52.9

$$$$
>  <COMPOUND>
COC(=O)C1=C(O)C(C(=O)OC)[C@]2(O)[C@@H](C(=O)OC)[C@H]1C[C@@H](c1ccccc1)[C@@H]2C(=O)OC (some centres undefined)

>  <ASSAY ENDPOINT>
TGI

>  <MODIFIER SIGN>
=

>  <ASSAY RESULT>
30.6

$$$$
>  <COMPOUND>
COc1cccc(CN(C)c2ccc(CO)c(Cl)c2)c1

>  <ASSAY ENDPOINT>
TGI

>  <MODIFIER SIGN>
=

>  <ASSAY RESULT>
66.2

$$$$
>  <COMPOUND>
Cn1cccc1-c1cc(-c2ccccc2)[nH]c(=O)c1C#N

>  <ASSAY ENDPOINT>
TGI

>  <MODIFIER SIGN>
>

>  <ASSAY RESULT>
100

$$$$
>  <COMPOUND>
O=C(Sc1c(-c2ccccc2)c(=O)n(-c2ccccc2)c(=S)n1-c1ccccc1)c1cccs1

>  <ASSAY ENDPOINT>
TGI

>  <MODIFIER SIGN>
>

>  <ASSAY RESULT>
100

$$$$
>  <COMPOUND>
NC(=O)c1cc(N(CCO)CCO)c([N+](=O)[O-])cc1[N+](=O)[O-]

>  <ASSAY ENDPOINT>
TGI

>  <MODIFIER SIGN>
>

>  <ASSAY RESULT>
100

$$$$
>  <COMPOUND>
c1cc(-c2nnc(SSc3ncnc4nc[nH]c34)o2)ccn1

>  <ASSAY ENDPOINT>
TGI

>  <MODIFIER SIGN>
>

>  <ASSAY RESULT>
100

$$$$
>  <COMPOUND>
CCCCCCCCOC(=O)c1c(C)[nH]c(/C=C2\N=C(c3ccc[nH]3)C=C2OC)c1C

>  <ASSAY ENDPOINT>
TGI

>  <MODIFIER SIGN>
=

>  <ASSAY RESULT>
1.41

$$$$
>  <COMPOUND>
CN(Cc1ccc(C(F)(F)F)cc1)CC(O)C(=O)Nc1ccc(Cl)cc1 (centres undefined)

>  <ASSAY ENDPOINT>
TGI

>  <MODIFIER SIGN>
=

>  <ASSAY RESULT>
3

$$$$
>  <COMPOUND>
Nc1cccc(S(=O)(=O)Nc2nnc(S(N)(=O)=O)s2)c1

>  <ASSAY ENDPOINT>
TGI

>  <MODIFIER SIGN>
>

>  <ASSAY RESULT>
100

$$$$
>  <COMPOUND>
Cc1ccc(S(=O)(=O)[C@@H](Cl)[C@H]2N=C(Cl)NN=C2c2ccccc2)cc1

>  <ASSAY ENDPOINT>
TGI

>  <MODIFIER SIGN>
=

>  <ASSAY RESULT>
51.4

$$$$
>  <COMPOUND>
CCCCCCCCCC(=O)N[C@@H](c1ccco1)[C@@H](O)C(=O)O[C@H]1C[C@@]2(O)[C@@H](OC(=O)c3ccccc3)[C@@H]3[C@]4(OC(C)=O)CO[C@@H]4C[C@H](O)[C@@]3(C)C(=O)[C@H](OC(C)=O)C(=C1C)C2(C)C

>  <ASSAY ENDPOINT>
TGI

>  <MODIFIER SIGN>
=

>  <ASSAY RESULT>
0.0345

$$$$
>  <COMPOUND>
CCOC(=O)C(NC(=O)CC)(Nc1ccc(S(=O)(=O)Nc2onc(C)c2C)cc1)C(F)(F)F (centres undefined)

>  <ASSAY ENDPOINT>
TGI

>  <MODIFIER SIGN>
>

>  <ASSAY RESULT>
100

$$$$
>  <COMPOUND>
C=C1[C@@](C)([C@@H]2CCCS2)[C@H]2C(C)=C[C@]1(C)n1c(=O)n(-c3ccccc3)c(=O)n12

>  <ASSAY ENDPOINT>
TGI

>  <MODIFIER SIGN>
>

>  <ASSAY RESULT>
100

$$$$
>  <COMPOUND>
CN(C)c1nc(=NCc2ccco2)ss1

>  <ASSAY ENDPOINT>
TGI

>  <MODIFIER SIGN>
=

>  <ASSAY RESULT>
42.3

$$$$
>  <COMPOUND>
CCCCCCCC(=O)OCCCC1[C@]2(C)CC[C@@]3(C)C([C@H](C)CCC=C(C)C)CC[C@]3(C)C2CC[C@]12OC2(C)C (some centres undefined)

>  <ASSAY ENDPOINT>
TGI

>  <MODIFIER SIGN>
>

>  <ASSAY RESULT>
100

$$$$
>  <COMPOUND>
CCOc1ccc(N=NC2C(=O)N(C(=O)CC(=O)Nc3ccccc3)N=C2C)cc1 (centres undefined)

>  <ASSAY ENDPOINT>
TGI

>  <MODIFIER SIGN>
=

>  <ASSAY RESULT>
23.8

$$$$
>  <COMPOUND>
O=C1CC(C(OCc2ccccc2)C(OCc2ccccc2)C(COCc2ccccc2)OCc2ccccc2)CC(=O)N1 (centres undefined)

>  <ASSAY ENDPOINT>
TGI

>  <MODIFIER SIGN>
>

>  <ASSAY RESULT>
100

$$$$
>  <COMPOUND>
CN(C)CCNC(=O)c1ccc(-c2nc3ccc4[nH]ncc4c3c3c2C2CCC3C2)cc1 (centres undefined)

>  <ASSAY ENDPOINT>
TGI

>  <MODIFIER SIGN>
=

>  <ASSAY RESULT>
4.45

$$$$
>  <COMPOUND>
Cc1nc2ccc(Br)cc2c(=O)n1-c1ccc(NC2OCC(O)C(O)C2O)cc1 (centres undefined)

>  <ASSAY ENDPOINT>
TGI

>  <MODIFIER SIGN>
>

>  <ASSAY RESULT>
100

$$$$
>  <COMPOUND>
CN(C)c1ccc(/C=C2\N=C(c3ccccc3)N(c3cc(C(F)(F)F)ccc3Cl)C2=O)cc1

>  <ASSAY ENDPOINT>
TGI

>  <MODIFIER SIGN>
>

>  <ASSAY RESULT>
100

$$$$
>  <COMPOUND>
CCOC(=O)c1c(C)nc2c(c1-c1cn(-c3ccccc3)nc1-c1ccccc1)C(=O)c1ccccc1-2

>  <ASSAY ENDPOINT>
TGI

>  <MODIFIER SIGN>
>

>  <ASSAY RESULT>
100

$$$$
